Data credit: paper PMC6934599

- subjectOfTest: AChE (E.C.3.1.1.7, from electric eel) (Electrophorus electricus, UniProt O42275)
- Construct: purchased Sigma-Aldrich and Fluka
- methodNotes: biochemical
- Type: biochemical
pIC50: −log10 of the molar value.
measurementName: pIC50

>  <molecularString>
N#CC(C#N)=Cc1ccc(OCCN2CCCCC2)cc1

>  <recordedNumber>
5.55

$$$$

* * *

- subjectOfTest: eeAChE (Electrophorus electricus)
pKi: −log10 of the molar value.
measurementName: pKi

>  <molecule>
COC(=O)/C(C#N)=C/c1ccc(OCCN2CCCCC2)cc1 [5c]

>  <recordedNumber>
7.28

$$$$

* * *

- subjectOfTest: AChE (E.C.3.1.1.7, from electric eel) (Electrophorus electricus)
- Construct: purchased Sigma-Aldrich and Fluka
- methodNotes: biochemical
- Format: biochemical
- condition: modified Ellman's method; read-out: eeAChE IC50
Reported IC50 is given for each of the following molecules.
measurementName: IC50

>  <molecule>
COC(=O)/C(C#N)=C/c1ccc(OCCN2CCCCC2)cc1

>  <subjectOfTest>
AChE (E.C.3.1.1.7, from electric eel) (Electrophorus electricus)

>  <result>
0.5 µM

$$$$
>  <molecule>
CC1(C)CC(=O)C2=C(C1)OC(N)=C(C#N)C2c1ccc(OCCN2CCCCC2)cc1 (stereo not shown)

>  <subjectOfTest>
AChE (E.C.3.1.1.7, from electric eel) (Electrophorus electricus)

>  <result>
35.6 µM

$$$$
>  <molecule>
Cc1cc2c(c(=O)o1)C(c1ccc(OCCN3CCCCC3)cc1)C(C#N)=C(N)O2 (stereo not shown)

>  <subjectOfTest>
AChE (E.C.3.1.1.7, from electric eel) (Electrophorus electricus)

>  <result>
2.1 µM

$$$$
>  <molecule>
N#CC1=C(N)OC2=C(C(=O)CCC2)C1c1ccc(OCCN2CCCCC2)cc1 (stereo not shown)

>  <subjectOfTest>
AChE (E.C.3.1.1.7, from electric eel) (Electrophorus electricus)

>  <result>
20.4 µM

$$$$

* * *

- subjectOfTest: eqBuChE (Equus caballus)
- Construct: BuChE (E.C.3.1.1.8, from equine serum)
- Sequence (P81908 whole entry): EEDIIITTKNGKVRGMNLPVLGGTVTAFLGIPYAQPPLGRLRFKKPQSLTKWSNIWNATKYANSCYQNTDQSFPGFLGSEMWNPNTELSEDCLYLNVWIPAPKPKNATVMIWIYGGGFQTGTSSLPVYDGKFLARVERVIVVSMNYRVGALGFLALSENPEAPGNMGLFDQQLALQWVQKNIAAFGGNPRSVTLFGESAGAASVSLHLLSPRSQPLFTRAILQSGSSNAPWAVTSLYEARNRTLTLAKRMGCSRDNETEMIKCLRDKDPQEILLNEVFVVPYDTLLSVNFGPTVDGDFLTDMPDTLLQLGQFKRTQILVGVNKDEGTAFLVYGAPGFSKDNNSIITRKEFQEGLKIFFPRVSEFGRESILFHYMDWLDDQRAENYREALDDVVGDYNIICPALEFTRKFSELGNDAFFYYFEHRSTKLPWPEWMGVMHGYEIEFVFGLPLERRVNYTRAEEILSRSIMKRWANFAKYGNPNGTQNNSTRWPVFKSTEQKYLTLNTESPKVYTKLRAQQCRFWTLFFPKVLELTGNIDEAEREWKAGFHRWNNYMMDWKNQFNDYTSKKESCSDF
- methodNotes: Kinetic study of eqBuChE inhibition (Lineweaver-Burk)
- condition: plot of slopes against inhibitor concentration
pKi: −log10 of the molar value.

>  <molecule>
CC1(C)CC(=O)C2=C(C1)OC(N)=C(C#N)C2c1ccc(OCCN2CCCCC2)cc1 (stereo not shown) [7c]

>  <pKi>
6.81

$$$$

* * *

- subjectOfTest: BuChE (E.C.3.1.1.8, from equine serum) (Equus caballus, UniProt P81908)
- Construct: BuChE (E.C.3.1.1.8, from equine serum)
- Sequence (P81908 whole entry): as above
- methodNotes: biochemical
- condition: modified Ellman's method; read-out: eqBuChE IC50
The compounds listed here are annotated with their IC50.

>  <compound>
CC1(C)CC(=O)C2=C(C1)OC(N)=C(C#N)C2c1ccc(OCCN2CCCCC2)cc1 (centres unmarked) [7c]

>  <unitLabel>
µM

>  <IC50>
2.5

$$$$
>  <compound>
N#CC1=C(N)OC2=C(C(=O)CCC2)C1c1ccc(OCCN2CCCCC2)cc1 (centres unmarked) [7a]

>  <unitLabel>
µM

>  <IC50>
8.1

$$$$
